experimental-parameters: [M+H]+; instrument: DT; single field, calibrated with Agilent tune mix (Agilent)
Record form. Attribute: collision cross section (N2). Fill in for each entry.
One number for each entry, in Å².

Examples from the recorded data:
{"columns": ["molecule", "u", "collision cross section (N2)"],
 "data": [
  ["CCCCCCCCCC/C=C\\CCCCCCCCCC(=O)O[C@H](COC(=O)CCCCCCCCCCCCC)COP(=O)(O)O[C@H]1C(O)C(O)C(O)[C@@H](O)C1O (stereo partly specified)", "Å²", 301.6],
  ["CCCCCCCCCCCCC=CCC(=O)N[C@@H](COP(=O)([O-])OCC[N+](C)(C)C)[C@H](O)CC=CCCCCCCCCCCCC", "Å²", 281.4],
  ["CCCCC/C=C\\C/C=C\\C/C=C\\CCCCC(=O)OC[C@H](COP(=O)(O)OC[C@H](N)C(=O)O)OC(=O)CCCCCCCCCCC/C=C\\C/C=C\\CCCCC", "Å²", 292.1],
  ["CCCCCCCCCCCCC=CC[C@@H](O)[C@H](COP(=O)([O-])OCC[N+](C)(C)C)NC(=O)CCCCCCCCCCCCCCC", "Å²", 283.9],
  ["CCCCC/C=C\\C/C=C\\C/C=C\\C/C=C\\CCCCCC(=O)O[C@H](CO/C=C\\CCCCCCCCCCCCCCCC)COP(=O)([O-])OCC[N+](C)(C)C", "Å²", 300.9]
]}

Okay, now this molecule:
Form: molecule = `CCCCCCCC/C=C\CCCCCCCCCC(=O)O[C@H](COC(=O)CCCCCCCCCCCCC)COP(=O)(O)OC[C@H](N)C(=O)O` ; collision cross section (N2) = 280

---

experimental-parameters: [M+Na]+; instrument: DT; single field, calibrated with Agilent tune mix (Agilent)
Record form. Attribute: collision cross section (N2). Fill in for each entry.
Numbers only, in Å².

Examples from the recorded data:
{"columns": ["molecule", "observed-value"],
 "data": [
  ["O=C(O)CCCCCCC(=O)NCC(=O)O", 153.7],
  ["OCC1(O)OC[C@@H](O)[C@@H](O)[C@@H]1O (stereo not given in full)", 141.4],
  ["Cc1cn([C@H]2C[C@H](O)[C@@H](COP(=O)(O)O)O2)c(=O)[nH]c1=O [Deoxythymidine 5'-phosphate]", 173.1],
  ["Nc1nc(=O)c2ncn([C@H]3C[C@H](O)[C@@H](COP(=O)(O)O)O3)c2[nH]1 [2'-Deoxyguanosine 5'-monophosphate]", 169.7]
]}

Form: molecule = CC(=O)[C@@H](O)[C@H](O)COP(=O)(O)O [1-Deoxy-D-xylulose 5-phosphate] ; collision cross section (N2) = 144.9

---

Record form. Attribute: collision cross section (N2). Fill in for each entry.
experimental-parameters: [M+Na]+; instrument: DT; stepped-field
Give bare numbers, in Å².

Examples from the recorded data:
{"columns": ["compound", "readout", "observed-value"],
 "data": [
  ["CCCCCCCCCCCCC=CC[C@@H](O)[C@H](COP(=O)([O-])OCC[N+](C)(C)C)NC(=O)CC=CCCCCCCCCCCCCCCCCCC [SM(40:02)]", "collision cross section (N2)", 292.53],
  ["CCCCC/C=C\\C/C=C\\C/C=C\\C/C=C\\CCCCCC(=O)O[C@H](COC(=O)CCCCCCC/C=C\\CCCCCCCC)COP(=O)(O)O [PA(40:05)]", "collision cross section (N2)", 281.79],
  ["CCCCCCCCCCCCC=CC[C@@H](O)[C@H](CO[C@@H]1O[C@H](CO)[C@@H](O)C(O)C1O)NC(=O)CCCCCCCCCCCCCCCCCCCC (some centres not stated) [GlcCer(39:01)]", "collision cross section (N2)", 291.95],
  ["CCCCC/C=C\\C/C=C\\CCCCCCCCCC(=O)O[C@H](COC(=O)CCCCCCC/C=C\\CCCCCCCC)COP(=O)(O)O [PA(38:03)]", "collision cross section (N2)", 277.43],
  ["CCCCCCCCCCCCC=CC[C@@H](O)[C@H](COP(=O)([O-])OCC[N+](C)(C)C)NC(=O)CCCCCCCCCCCCCCCCC [SM(36:01)]", "collision cross section (N2)", 285.86],
  ["CCCCCCCC/C=C\\C/C=C\\CCCCC(=O)O[C@H](COC(=O)CCCCCCC/C=C\\CCCCCCCC)COP(=O)([O-])OCC[N+](C)(C)C [PC(36:03)]", "collision cross section (N2)", 287.02]
]}

// batch mode: one collision cross section (N2) value per listed entry
1. CCCCCCCCCCCCC=CC[C@@H](O)[C@H](COP(=O)([O-])OCC[N+](C)(C)C)NC(=O)CC=CCCCCCCCCCCCCCCCCCCCCCC [SM(44:02)]
2. CCCCC/C=C\C/C=C\CCCCCCCCCCCC(=O)O[C@H](COC(=O)CCCCCCCCCCCCCCC)COP(=O)(O)O [PA(38:02)]
3. CCCCC/C=C\C/C=C\CCCCCCCCCC(=O)O[C@H](COC(=O)CCCCCCC/C=C\CCCCCC)COP(=O)(O)O [PA(36:03)]
4. CCCCC/C=C\C/C=C\CCCCCCCC(=O)O[C@H](COCCCCCCCCCCCCCCCC)COP(=O)(O)OCCN [PE(o34:02)]
5. CCCCCC/C=C\CCCCCCCCCC(=O)O[C@H](COC(=O)CCCCCCC/C=C\CCCCCC)COP(=O)([O-])OCC[N+](C)(C)C [PC(34:02)]
6. CC/C=C\C/C=C\C/C=C\C/C=C\C/C=C\C/C=C\CCC(=O)O[C@H](COC(=O)CCCCCC/C=C\C/C=C\C/C=C\CCCCC)COP(=O)(O)OCCN [PE(42:09)]

[out]
1. 306.5
2. 279.74
3. 270.97
4. 273.65
5. 283.1
6. 288.64

---

experimental-parameters: [M+Na]+; instrument: DT; stepped-field
readout: collision cross section (N2) (Å²)
One number for each entry, in Å².

{"columns": ["compound", "observed-value"],
 "data": [
  ["CCCCC/C=C\\C/C=C\\CCCCCCCC(=O)O[C@H](COC(=O)CCCCCCCCCCCCC)COP(=O)([O-])OCC[N+](C)(C)C", 276.86],
  ["CCCCCCCCCCCCC=CC[C@@H](O)[C@H](CO[C@@H]1O[C@H](CO)[C@@H](O)C(O)C1O)NC(=O)CC=CCCCCCCCCCCCCCC (some centres not stated)", 281.52],
  ["CCCCCCCC/C=C\\CCCCCCCC(=O)O[C@H](COC(=O)CCCCCCCCCCCCCCCC)COP(=O)([O-])OCC[N+](C)(C)C", 287.14]
]}

// batch mode: one collision cross section (N2) value per listed entry
1. CC/C=C\C/C=C\C/C=C\CCCCCCCC(=O)O[C@H](COC(=O)CCCCCCCCCCCCCCC)COP(=O)(O)OCCN
2. CCCCCCCCCCCCC=CC[C@@H](O)[C@H](CO[C@@H]1O[C@H](CO)[C@@H](O)C(O)C1O)NC(=O)CC=CCC=CCCCCCCCCCCCCCCC (some centres not stated)

[out]
1: 271.73; 2: 290.28

// batch mode: one collision cross section (N2) value per listed entry
1. CCCCC/C=C\C/C=C\C/C=C\CCCCC(=O)O[C@H](COCCCCCCCCCCCCCCCCCC)COP(=O)(O)OCCN
2. CCCCCCCCCC/C=C\CCCCCCCCCC(=O)O[C@H](COC(=O)CCCCCCCCCCCCCCCCCCC)COP(=O)(O)OC[C@H](N)C(=O)O
3. CCCCC/C=C\C/C=C\CCCCCCCCCCCC(=O)O[C@H](COC(=O)CCCCCCC/C=C\CCCCCCCC)COP(=O)(O)OC[C@H](N)C(=O)O
4. CCCCCCCCCCCCCCCCCCCCCCCC(=O)N[C@@H](CO[C@@H]1O[C@H](CO)[C@@H](O)C(O)C1O)[C@H](O)CCCCCCCCCCCCCCC (some centres not stated)
5. CCCCCCCCCCCCC=CC[C@@H](O)[C@H](COP(=O)([O-])OCC[N+](C)(C)C)NC(=O)CCCCCCCCCCCCCCC
6. CCCCCCCCCCCCC=CC[C@@H](O)[C@H](CO[C@@H]1O[C@H](CO)[C@@H](O)C(O)C1O)NC(=O)CC=CCCCCCCCCCCCCCCCCCCCC (some centres not stated)

[out]
1: 277.92; 2: 303.25; 3: 296.28; 4: 303.14; 5: 278.77; 6: 299.53

Form: compound = `CCCCC/C=C\C/C=C\C/C=C\C/C=C\CCCCCC(=O)O[C@H](COC(=O)CCC/C=C\C/C=C\C/C=C\C/C=C\CCCCC)COP(=O)(O)OCCN` ; collision cross section (N2) = 290.41
